target: BCL6 (Homo sapiens); construct: HiBiT-tag knocked into endogenous BCL6 locus using CRISPR; endogenous in cells; host or cells: DHL-4_BCL6_HiBiT cells (CRISPR knock-in); test: 24 h degradation assay (BCL6 HiBiT); type: cell-based; conditions: read-out: YCon (% remaining maximal effect)
Listed below: Emax values for each entry.

INPUT: Could you share what Emax was measured for CO[C@@H]1CN(c2ncc(C#N)c(Nc3ccc4c(c3)CC(=O)N4C)n2)CC[C@H]1Nc1ccc2c(C3CCC(=O)NC3=O)nn(C)c2c1 (some centres unmarked) [Example 145] , tested on BCL6 (Homo sapiens)?
OUTPUT: 20 to 60%

INPUT: Form field - read-out: Emax; system: BCL6 (Homo sapiens); submitted item: C[C@@H]1C[C@@H](N(C)c2ncc(Cl)c(Nc3ccc4c(c3)CC(=O)N4C)n2)CC(=O)N1c1ccc2c(C3CCC(=O)NC3=O)nn(C)c2c1 (some centres unmarked) [Example 151]
OUTPUT: < 20%

INPUT: What is its Emax for BCL6 (Homo sapiens)? Entry: C[C@H]1C[C@H](N(C)c2ncc(Cl)c(Nc3ccc4c(c3)CC(=O)N4C)n2)CC(=O)N1c1ccc2c(C3CCC(=O)NC3=O)nn(C)c2c1 (some centres unmarked) [Example 153]
OUTPUT: < 20%

INPUT: Please provide the recorded Emax for C[C@@H]1C[C@H](N(C)c2ncc(Cl)c(Nc3ccc4c(c3)CC(=O)N4C)n2)CC(=O)N1c1ccc2c(C3CCC(=O)NC3=O)nn(C)c2c1 (some centres unmarked) [Example 150] , tested on BCL6 (Homo sapiens).
OUTPUT: 20 to 60%

INPUT: What value of Emax on BCL6 (Homo sapiens) does C[C@H]1C[C@@H](N(C)c2ncc(Cl)c(Nc3ccc4c(c3)CC(=O)N4C)n2)CC(=O)N1c1ccc2c(C3CCC(=O)NC3=O)nn(C)c2c1 (some centres unmarked) [Example 152] have?
OUTPUT: > 60%

====

Percent BCL6 remaining at maximal degradation (Ycon) for assorted compounds
Molecular target: BCL6 (Homo sapiens, UniProt P41182)
Construct: HiBiT-tag knocked into endogenous BCL6 locus using CRISPR; endogenous in cells; host or cells: DHL-4_BCL6_HiBiT cells (CRISPR knock-in)
Test: BCL6_HiBiT degradation assay (2 h)
Assay type: cell-based
Conditions: DHL-4_BCL6_HiBiT cells, read-out: YCon (% remaining maximal effect)
Description: A DHL-4 cell line with HiBiT-tag knocked into endogenous BCL6 locus using CRISPR was generated. The DHL-4_BCL6_HiBiT cells were dispensed into 384-well plates (Corning no. 3570) that were pre-spotted with compounds. […] After 30 min, luminescence was read on an Envision or PHERAstar luminescence reader. […]

Look over these answered cases.
CN1C(=O)Cc2cc(Nc3nc(NC4CCN(c5ccc6c(N7CCC(=O)NC7=O)nn(C)c6c5)CC4)ncc3Cl)ccc21
> 60%
CN1C(=O)Cc2cc(Nc3nc(N4CCC(Nc5ccc6c(C7CCC(=O)NC7=O)nn(C)c6c5)CC4)ncc3C#N)ccc21 (stereo not drawn)
> 60%

INPUT: Percent BCL6 remaining at maximal degradation (Ycon) of C[C@@H]1CN(c2ncc(Cl)c(Nc3ccc4c(c3)CC(=O)N4C)n2)C[C@@H](C)N1c1ccc2c([C@@H]3CCC(=O)NC3=O)nn(C)c2c1 (single isomer, unassigned) on BCL6 (Homo sapiens, UniProt P41182)?
OUTPUT: > 60%

INPUT: Return Percent BCL6 remaining at maximal degradation (Ycon) measured with BCL6 (Homo sapiens, UniProt P41182) given this compound: C[C@@H]1CN(c2ncc(Cl)c(Nc3ccc4c(c3)C(F)(F)C(=O)N4C)n2)CC[C@H]1Nc1ccc2c(C3CCC(=O)NC3=O)nn(C)c2c1 (stereo partly drawn)
OUTPUT: < 20%

INPUT: BCL6 (Homo sapiens, UniProt P41182) / Percent BCL6 remaining at maximal degradation (Ycon) / C[C@@H]1CN(c2ccc3c(C4CCC(=O)NC4=O)nn(C)c3c2)C[C@H](C)N1c1ncc(Cl)c(Nc2ccc3c(c2)CC(=O)N3C)n1 (stereo partly drawn) : value?
OUTPUT: > 60%

INPUT: Hello, I am looking for reported Percent BCL6 remaining at maximal degradation (Ycon) with BCL6 (Homo sapiens, UniProt P41182) for C[C@H]1CN(c2ccc3c(C4CCC(=O)NC4=O)nn(C)c3c2)C[C@H](C)N1c1ncc(Cl)c(Nc2ccc3c(c2)CC(=O)N3C)n1 (stereo partly drawn) . Could you help?
OUTPUT: < 20%

INPUT: What value of Percent BCL6 remaining at maximal degradation (Ycon) on BCL6 (Homo sapiens, UniProt P41182) does CN1C(=O)Cc2cc(Nc3nc(N(C)C4CCN(c5ccc6c(C7CCC(=O)NC7=O)nn(C)c6c5)C(=O)C4)ncc3Cl)ccc21 (stereo not drawn) have?
OUTPUT: < 20%

====

molecular target: BCL6 (Homo sapiens); construct: HiBiT-tag knocked into endogenous BCL6 locus using CRISPR; endogenous in cells; host or cells: DHL-4_BCL6_HiBiT cells (CRISPR knock-in); assay: BCL6_HiBiT degradation assay (2 h); type: cell-based; details: DHL-4_BCL6_HiBiT cells, read-out: YCon (% remaining maximal effect)
assay-readout: Percent BCL6 remaining at maximal degradation (Ycon)

INPUT: Quick one: Percent BCL6 remaining at maximal degradation (Ycon) for CCN1C(=O)Cc2cc(Nc3nc(N4CCC(Nc5ccc6c(C7CCC(=O)NC7=O)nn(C)c6c5)CC4)ncc3Cl)ccc21 (centres unmarked) ?
OUTPUT: > 60%

INPUT: Any idea what its Percent BCL6 remaining at maximal degradation (Ycon) is? The molecule is CN1C(=O)Cc2cc(Nc3nc(N4CCC(Nc5ccc6c(C7CCC(=O)NC7=O)nn(C)c6c5)CC4)ncc3Cl)ccc21 (centres unmarked)
OUTPUT: 20 to 60%

INPUT: Reported Percent BCL6 remaining at maximal degradation (Ycon), molecule C[C@@H]1CN(c2ncc(Cl)c(Nc3ccc4c(c3)CC(=O)N4C)n2)CC[C@H]1Nc1ccc2c(C3CCC(=O)NC3=O)nn(C)c2c1 (some centres unmarked) : ____
OUTPUT: < 20%

INPUT: Quick check: Percent BCL6 remaining at maximal degradation (Ycon) of CN1C(=O)Cc2cc(Nc3nc(N4CC[C@@H](Nc5ccc6c(C7CCC(=O)NC7=O)nn(C)c6c5)C(F)(F)C4)ncc3Cl)ccc21 (some centres unmarked) ?
OUTPUT: > 60%

INPUT: Endpoint output: Percent BCL6 remaining at maximal degradation (Ycon) of Cn1nc(N2CCC(=O)NC2=O)c2ccc(NC3CCN(c4ncc(Cl)c(Nc5ccc6c(c5)CC(=O)N6CC(F)(F)F)n4)CC3)cc21 . Value?
OUTPUT: > 60%

INPUT: Dear colleague, I am looking for the recorded Percent BCL6 remaining at maximal degradation (Ycon) of the following molecule: CN1C(=O)Cc2cc(Nc3nc(N4CCN(c5ccc6c(C7CCC(=O)NC7=O)nn(C)c6c5)CC4)ncc3Cl)ccc21 (centres unmarked)
OUTPUT: > 60%

INPUT: Would you mind telling me what Percent BCL6 remaining at maximal degradation (Ycon) value was observed for C[C@@H]1CN(c2ncc(Cl)c(Nc3ccc4c(c3)CC(=O)N4C)n2)CC[C@H]1Nc1ccc2c(C3CCC(=O)NC3=O)nn(C)c2n1 (some centres unmarked) ?
OUTPUT: < 20%

INPUT: Which Percent BCL6 remaining at maximal degradation (Ycon) is listed for C[C@@H]1CN(c2ncc(Cl)c(Nc3ccc4c(c3)CC(=O)N4C)n2)CC[C@@H]1Nc1ccc2c(C3CCC(=O)NC3=O)nn(C)c2c1 (some centres unmarked) ?
OUTPUT: < 20%

====

target: BCL6 (Homo sapiens, UniProt P41182); construct: HiBiT-tag knocked into endogenous BCL6 locus using CRISPR; endogenous in cells; host or cells: DHL-4_BCL6_HiBiT cells (CRISPR knock-in); assay: BCL6_HiBiT degradation assay (2 h); format: cell-based; details: DHL-4_BCL6_HiBiT cells, read-out: YCon (% remaining maximal effect)
assay-readout: Percent BCL6 remaining at maximal degradation (Ycon)

C[C@@H]1CN(c2ncc(Cl)c(Nc3cc4c(cc3F)N(C)C(=O)C4)n2)CC[C@H]1Nc1ccc2c([C@H]3CCC(=O)NC3=O)nn(C)c2c1 (single isomer, unassigned)
< 20%

INPUT: Dear colleague, I am looking for the recorded Percent BCL6 remaining at maximal degradation (Ycon) of the following compound: C[C@@H]1CN(c2ncc(Cl)c(Nc3ccc4c(c3)CC(=O)N4CCC(C)(C)F)n2)CC[C@H]1Nc1ccc2c(C3CCC(=O)NC3=O)nn(C)c2c1 (stereo partly drawn)
OUTPUT: < 20%

INPUT: Fill in the blank: the reported Percent BCL6 remaining at maximal degradation (Ycon) of C[C@@H]1C[C@@H](Nc2ccc3c(C4CCC(=O)NC4=O)nn(C)c3c2)CCN1c1ncc(Cl)c(Nc2ccc3c(c2)CC(=O)N3C)n1 (stereo partly drawn) is ____.
OUTPUT: > 60%
